src = the Immune Epitope Database (IEDB)

# TARGET_SYSTEM: HLA-B*07:02
# MEASUREMENT_DESCRIPTION: IEDB peptide-MHC binding, purified MHC/competitive/radioactivity; filed as Kd, often an IC50 or EC50 that approximates it; bounds were set here for any values at or beyond the usual limits of such assays
# ASSAY_CONTEXT: source organism: Dengue virus 3 Martinique/1243/1999
MEASUREMENT_NAME: pKd
In simple prose, pKd is minus the logarithm base ten of a concentration in moles per litre.

Input: Which measured pKd belongs to `APIQDEERDI` , tested on HLA-B*07:02?
Output: 5.30

----------
# TARGET_SYSTEM: HLA-B*83:01
# MEASUREMENT_DESCRIPTION: IEDB peptide-MHC binding, purified MHC/competitive/fluorescence; filed as Kd, often an IC50 or EC50 that approximates it; bounds were set here for any values at or beyond the usual limits of such assays
# ASSAY_CONTEXT: source organism: Yersinia pestis Nepal516
MEASUREMENT_NAME: Kd

{"INPUT_SEQUENCE": "MLYPLLWMF", "RESULT": "≥ 5 µM"}

Input: Kd for `GSYFSGFYK` ?
Output: ≥ 5 µM
